The values you see were collected from patent US10000454B2.

- MEASURED TARGET: Human GPR40 (Homo sapiens, UniProt O14842)
- Sequence (O14842 whole entry): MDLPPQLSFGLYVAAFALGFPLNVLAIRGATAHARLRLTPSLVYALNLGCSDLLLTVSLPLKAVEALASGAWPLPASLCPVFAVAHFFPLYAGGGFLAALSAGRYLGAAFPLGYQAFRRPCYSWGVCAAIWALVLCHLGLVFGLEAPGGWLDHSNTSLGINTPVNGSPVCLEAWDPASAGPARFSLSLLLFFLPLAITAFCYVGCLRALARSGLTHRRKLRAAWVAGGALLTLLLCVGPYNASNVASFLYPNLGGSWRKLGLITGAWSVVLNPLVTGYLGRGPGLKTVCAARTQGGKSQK
- TEST NAME: Inositol Phosphate Turnover (IP1) Assay
- Type: cell-based
- Parameters: expressed in transfected cells; host or cells: HEK cells (stably expressing the aequorin reporter)
- DETAILS: HEK cells stably expressing human GPR40, CisBio IP-One kit
MEASUREMENT KIND: EC50
Report as: number unit

# input Reported EC50 for `Cc1ccccc1N1CCCc2ccc(COc3ccc4c(c3)C[C@H]3[C@H](C(=O)O)[C@@H]43)cc21` : what is it?
# output 0.0649 µM

# input Reported EC50 for O=C(O)[C@H]1[C@@H]2Cc3cc(OCc4cccc5c4CCC5c4ccccc4C(F)(F)F)ncc3[C@@H]21 (single isomer, unassigned) [Example 65] : what is it?
# output 0.124 µM

# input Reported EC50 for `CC1(C)CC(=O)N(c2ccccc2C(F)(F)F)c2cc(COc3cc4c(cn3)[C@H]3[C@@H](C4)[C@@H]3C(=O)O)c(F)cc21` : what is it?
# output 0.562 µM

# input Reported EC50 for `CC1(C)CC(C)(C)c2cc(COc3cc4c(cn3)[C@H]3[C@@H](C4)[C@@H]3C(=O)O)c(F)cc21` : what is it?
# output 0.0173 µM
